System: Pseudomonas aeruginosa
Assay: Antibacterial activity against Pseudomonas aeruginosa ATCC 27853 after 18 hrs by EUCAST broth dilution method
Assay type: functional
assay readout: log(1/MIC), MIC in mM
I only need the number, thanks.

// worked examples, log(1/MIC), MIC in mM included
compound	log(1/MIC), MIC in mM
CCn1cc(C(=O)O)c(=O)c2cc(F)c(N3CCN(S(=O)(=O)c4ccc(OC)c(OC)c4)CC3)cc21	2.14
Cc1c(C)c(C)c(S(=O)(=O)N2CCN(c3cc4c(cc3F)c(=O)c(C(=O)O)cn4C3CC3)CC2)c(C)c1C	0.33
CCn1cc(C(=O)O)c(=O)c2cc(F)c(N3CCN(S(=O)(=O)c4c(Cl)cc(Cl)cc4Cl)CC3)cc21	0.34
O=C(O)c1cn(C2CC2)c2cc(N3CCN(S(=O)(=O)c4ccc(Cl)cc4Cl)CC3)c(F)cc2c1=O	2.73
COc1ccc(S(=O)(=O)N2CCN(c3cc4c(cc3F)c(=O)c(C(=O)O)cn4C3CC3)CC2)cc1OC	2.42
CCn1cc(C(=O)O)c(=O)c2cc(F)c(N3CCN(S(=O)(=O)c4ccc(OC)cc4OC)CC3)cc21	2.14
CCn1cc(C(=O)O)c(=O)c2cc(F)c(N3CCN(S(=O)(=O)c4c(C(C)C)cc(C(C)C)cc4C(C)C)CC3)cc21	0.96
O=C(O)c1cn(C2CC2)c2cc(N3CCN(S(=O)(=O)c4ccc(F)cc4F)CC3)c(F)cc2c1=O	1.2
O=C(O)c1cn(C2CC2)c2cc(N3CCN(S(=O)(=O)c4ccc5ccccc5c4)CC3)c(F)cc2c1=O	0.61
O=C(O)c1cn(C2CC2)c2cc(N3CCNCC3)c(F)cc2c1=O [CIPROFLOXACIN]	3.12

Note to self: log(1/MIC), MIC in mM recorded for `O=C(O)c1cn(C2CC2)c2cc(N3CCN(S(=O)(=O)c4c(Cl)cc(Cl)cc4Cl)CC3)c(F)cc2c1=O` was 0.95

Note to self: log(1/MIC), MIC in mM recorded for `CC(C)c1cc(C(C)C)c(S(=O)(=O)N2CCN(c3cc4c(cc3F)c(=O)c(C(=O)O)cn4C3CC3)CC2)c(C(C)C)c1` was 0.37

Note to self: log(1/MIC), MIC in mM recorded for `O=C(O)c1cn(C2CC2)c2cc(N3CCN(S(=O)(=O)c4ccc(Cl)c(Cl)c4)CC3)c(F)cc2c1=O` was 2.73

Note to self: log(1/MIC), MIC in mM recorded for `Cc1cc(C)c(S(=O)(=O)N2CCN(c3cc4c(cc3F)c(=O)c(C(=O)O)cn4C3CC3)CC2)c(C)c1` was 0.9

Note to self: log(1/MIC), MIC in mM recorded for `CCn1cc(C(=O)O)c(=O)c2cc(F)c(N3CCN(S(=O)(=O)c4ccc(Cl)cc4Cl)CC3)cc21` was 2.86

Note to self: log(1/MIC), MIC in mM recorded for `O=C(O)c1cn(C2CC2)c2cc(N3CCN(S(=O)(=O)c4cccc5ccccc45)CC3)c(F)cc2c1=O` was 0.91

====

Test system: Pseudomonas aeruginosa
Assay: Antibacterial activity against Pseudomonas aeruginosa ATCC 27853 after 18 hrs by EUCAST broth dilution method
Type: functional
assay readout: log(1/MIC), MIC in mM
I only need the number, thanks.

CCn1cc(C(=O)O)c(=O)c2cc(F)c(N3CCN(S(=O)(=O)c4ccc5ccccc5c4)CC3)cc21 0.9
COc1ccc(S(=O)(=O)N2CCN(c3cc4c(cc3F)c(=O)c(C(=O)O)cn4C3CC3)CC2)c(OC)c1 3.33

Value (log(1/MIC), MIC in mM, Pseudomonas aeruginosa) for record `CCn1cc(C(=O)O)c(=O)c2cc(F)c(N3CCN(S(=O)(=O)c4cccc5ccccc45)CC3)cc21` = 0.6

Value (log(1/MIC), MIC in mM, Pseudomonas aeruginosa) for record `CCn1cc(C(=O)O)c(=O)c2cc(F)c(N3CCN(S(=O)(=O)c4ccc(F)cc4F)CC3)cc21` = 0.89

Value (log(1/MIC), MIC in mM, Pseudomonas aeruginosa) for record `CCn1cc(C(=O)O)c(=O)c2cc(F)c(N3CCN(S(=O)(=O)c4c(C)cc(C)cc4C)CC3)cc21` = 1.19

Value (log(1/MIC), MIC in mM, Pseudomonas aeruginosa) for record `CCn1cc(C(=O)O)c(=O)c2cc(F)c(N3CCN(S(=O)(=O)c4ccc(Cl)c(Cl)c4)CC3)cc21` = 2.72

Value (log(1/MIC), MIC in mM, Pseudomonas aeruginosa) for record `CCn1cc(C(=O)O)c(=O)c2cc(F)c(N3CCN(S(=O)(=O)c4c(C)c(C)c(C)c(C)c4C)CC3)cc21` = 0.62

Every entry's value here was drawn from ChEMBL document CHEMBL1909615.
